B1: KLHL20 (parent)
chain: YQDMIYAVGGRDDTTELSSAERYN

variants of: B1; assay: protein stability index of a GFP-peptide fusion (GPS, HEK-293T) (PSI 1-6); higher = more stable; settings: c terminus: a fixed tail appended;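 also: lentivirally expressed fusions sorted by FACS into six bins by GFP to DsRed ratio, PSI derived from sequencing read proportions per bin multiplied by bin number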
Listed here: items and their measured protein stability index.
endpoint.label: protein stability index

{"columns": ["mutations", "obs.value"],
 "data": [
  ["D12G", 2.47],
  ["G10C", 2.23],
  ["G9Y", 1.32],
  ["T14N", 2.36],
  ["A7E", 3.56],
  ["D3G", 1.47],
  ["M4F", 1.84],
  ["L17W", 2.45],
  ["D13K", 2.23],
  ["I5E", 3.98],
  ["S18F", 2.63]
]}
